Could you please report measured pIC50 for the items listed next?
measured_target: hMCH-1R (Homo sapiens (Human))
Sequence (Q99705 whole entry): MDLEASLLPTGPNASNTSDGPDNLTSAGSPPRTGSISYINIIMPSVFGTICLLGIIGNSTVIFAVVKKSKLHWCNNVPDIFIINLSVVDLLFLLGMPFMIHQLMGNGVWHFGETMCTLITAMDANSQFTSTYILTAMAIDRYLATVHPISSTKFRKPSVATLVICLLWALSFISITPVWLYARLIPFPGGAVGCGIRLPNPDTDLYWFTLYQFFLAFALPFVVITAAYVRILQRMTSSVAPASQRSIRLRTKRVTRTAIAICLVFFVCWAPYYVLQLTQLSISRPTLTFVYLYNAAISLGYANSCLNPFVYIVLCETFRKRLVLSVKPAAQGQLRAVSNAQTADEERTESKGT
// returns pIC50 (minus log10 of molar concentration), number only

// returns reported pIC50 for input CCNCc1ccc(C(=O)Cn2ccc(OCc3ccc(F)cn3)cc2=O)c(C)c1 [Example 2.6]
6.87

Param item = COc1ccc(COc2cnn(CC(=O)c3ccc(CN4CCCC4)cc3C)c(=O)c2)nc1 [Example 9.3] ; retrieve measured pIC50.
7.60

Given the compound Cc1cc(CN2CCCCC2)ccc1C(=O)Cn1ccc(OCc2ccc(Br)cn2)cc1=O [Example 4.16] , what is its reported pIC50?
7.92

Give the measured pIC50 of Cc1cc(CN2CCOCC2)ccc1C(=O)Cn1ccc(OCc2ccccc2)cc1=O [Example 1.4] .
7.40
